TARGET SYSTEM: COX-2 (Homo sapiens, UniProt P35354)
Sequence (P35354 18-604): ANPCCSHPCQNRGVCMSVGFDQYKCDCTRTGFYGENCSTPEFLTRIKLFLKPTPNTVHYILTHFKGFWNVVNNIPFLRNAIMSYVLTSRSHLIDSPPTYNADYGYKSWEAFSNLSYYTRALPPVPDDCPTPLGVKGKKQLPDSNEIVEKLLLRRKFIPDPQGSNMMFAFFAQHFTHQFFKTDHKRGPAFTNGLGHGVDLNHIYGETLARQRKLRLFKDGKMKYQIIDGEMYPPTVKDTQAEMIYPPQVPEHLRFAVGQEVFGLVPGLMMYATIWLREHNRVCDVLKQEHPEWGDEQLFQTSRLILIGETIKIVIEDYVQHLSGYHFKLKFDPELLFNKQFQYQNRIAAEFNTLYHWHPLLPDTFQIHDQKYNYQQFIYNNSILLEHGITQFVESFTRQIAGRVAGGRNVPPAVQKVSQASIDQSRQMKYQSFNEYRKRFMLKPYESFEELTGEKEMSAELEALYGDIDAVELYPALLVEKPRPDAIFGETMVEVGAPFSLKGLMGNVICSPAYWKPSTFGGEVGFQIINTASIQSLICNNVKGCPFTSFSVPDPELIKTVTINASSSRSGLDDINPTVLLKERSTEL
ASSAY TEXT: Whole cell COX-2 assay using CHO transfected cell line (PGE2 radioimmunoassay)
Format: cell-based
Design: expressed in transfected cells; host or cells: CHO [hCOX-2], stably transfected with pCDNAIII
EXPERIMENTAL CONTEXT: CHO [hCOX-2] cells; PGE2 synthesis in response to arachidonic acid
Description: Compounds are tested as inhibitors of cyclooxygenase activity in whole cell cyclooxygenase assays. These assays measure prostaglandin E2 synthesis in response to arachidonic acid, using a radioimmunoassay. […] In the assay, inhibition is determined by measuring the amount of prostaglandin E2 (PGE2) synthesized in the presence of arachidonic acid, cyclooxygenase-1 or cyclooxygenase-2 and a putative inhibitor.
pIC50: −log10 of the molar value.
MEASUREMENT NAME: pIC50

>  <COMPOUND>
C=CC(C)OC1=C(c2ccc(S(C)(=O)=O)cc2)C(C)(C)OC1=O (stereo not shown)

>  <pIC50>
7.30

$$$$

1. C#CCOC1=C(c2ccc(S(C)(=O)=O)cc2)C(C)(C)OC1=O
2. C=CC(C)(O)COC1=C(c2ccc(S(C)(=O)=O)cc2)C(C)(C)OC1=O (stereo not shown)
3. C=C(CF)COC1=C(c2ccc(S(C)(=O)=O)cc2)C(C)(C)OC1=O
Provide the items ranked by increasing pIC50. # answer = labels listed in requested order
1, 3, 2
(1: 6.30, 3: 6.70, 2: 7.10)
